# assay-notes: Half life were determined in CEM-SS cell extract in decomposition step 1
# Assay type: ADME
# condition-set: human
reported-metric: half-life

- Cc1cn(C2CC(N=[N+]=[N-])C(COP(=O)(NC(C)(C)C)OCCSC(=O)C(C)(C)C)O2)c(=O)[nH]c1=O (configuration not stated): 1.2 h
- CCCCNP(=O)(O)OCC1OC(n2cc(C)c(=O)[nH]c2=O)CC1N=[N+]=[N-] (configuration not stated): 1.3 h
- CCCCN(CCCC)P(=O)(O)OCC1OC(n2cc(C)c(=O)[nH]c2=O)CC1N=[N+]=[N-] (configuration not stated): 0.96 h
- Cc1cn(C2CC(N=[N+]=[N-])C(COP(=O)(O)N3CCOCC3)O2)c(=O)[nH]c1=O (configuration not stated): 2.1 h
- Cc1cn(C2CC(N=[N+]=[N-])C(COP(=O)(NC(C)C)OCCSC(=O)C(C)(C)C)O2)c(=O)[nH]c1=O (configuration not stated): 1.2 h
- Cc1cn(C2CC(N=[N+]=[N-])C(COP(=O)(Nc3ccccc3)OCCSC(=O)C(C)(C)C)O2)c(=O)[nH]c1=O (configuration not stated): 1.4 h
- Cc1cn(C2CC(N=[N+]=[N-])C(COP(=O)(O)N3CCCCC3)O2)c(=O)[nH]c1=O (configuration not stated): 1.2 h

---

# assay-notes: Half life in human serum
# Type: ADME, cell-free
reported-metric: half-life (h)

• Cc1cn(C2CC(N=[N+]=[N-])C(COP(=O)(O)N3CCOCC3)O2)c(=O)[nH]c1=O (stereo unspecified) = 23
• Cc1cn(C2CC(N=[N+]=[N-])C(COP(=O)(NC(C)(C)C)OCCSC(=O)C(C)(C)C)O2)c(=O)[nH]c1=O (stereo unspecified) = 23
• CCCCNP(=O)(O)OCC1OC(n2cc(C)c(=O)[nH]c2=O)CC1N=[N+]=[N-] (stereo unspecified) = 29
• CCCCN(CCCC)P(=O)(O)OCC1OC(n2cc(C)c(=O)[nH]c2=O)CC1N=[N+]=[N-] (stereo unspecified) = 23
• Cc1cn(C2CC(N=[N+]=[N-])C(COP(=O)(Nc3ccccc3)OCCSC(=O)C(C)(C)C)O2)c(=O)[nH]c1=O (stereo unspecified) = 23
• Cc1cn(C2CC(N=[N+]=[N-])C(COP(=O)(NC(C)C)OCCSC(=O)C(C)(C)C)O2)c(=O)[nH]c1=O (stereo unspecified) = 10

---

# assay-notes: Half life in culture medium containing 10% of heat inactivated foetal calf serum
# Format: ADME, cell-free, Bos taurus
# condition-set: cattle
reported-metric: half-life (h)

* Cc1cn(C2CC(N=[N+]=[N-])C(COP(=O)(NC(C)(C)C)OCCSC(=O)C(C)(C)C)O2)c(=O)[nH]c1=O (stereo unspecified) | 350
* CCCCNP(=O)(O)OCC1OC(n2cc(C)c(=O)[nH]c2=O)CC1N=[N+]=[N-] (stereo unspecified) | 165
* Cc1cn(C2CC(N=[N+]=[N-])C(COP(=O)(NC(C)C)OCCSC(=O)C(C)(C)C)O2)c(=O)[nH]c1=O (stereo unspecified) | 200
* Cc1cn(C2CC(N=[N+]=[N-])C(COP(=O)(O)N3CCOCC3)O2)c(=O)[nH]c1=O (stereo unspecified) | 385
* CCCCN(CCCC)P(=O)(O)OCC1OC(n2cc(C)c(=O)[nH]c2=O)CC1N=[N+]=[N-] (stereo unspecified) | 136
* Cc1cn(C2CC(N=[N+]=[N-])C(COP(=O)(Nc3ccccc3)OCCSC(=O)C(C)(C)C)O2)c(=O)[nH]c1=O (stereo unspecified) | 100
